Molecular target: GST-Ap-NF-kB RHD (Exaiptasia pallida (Aiptasia), UniProt A0A913YAJ5 2-422)
Sequence: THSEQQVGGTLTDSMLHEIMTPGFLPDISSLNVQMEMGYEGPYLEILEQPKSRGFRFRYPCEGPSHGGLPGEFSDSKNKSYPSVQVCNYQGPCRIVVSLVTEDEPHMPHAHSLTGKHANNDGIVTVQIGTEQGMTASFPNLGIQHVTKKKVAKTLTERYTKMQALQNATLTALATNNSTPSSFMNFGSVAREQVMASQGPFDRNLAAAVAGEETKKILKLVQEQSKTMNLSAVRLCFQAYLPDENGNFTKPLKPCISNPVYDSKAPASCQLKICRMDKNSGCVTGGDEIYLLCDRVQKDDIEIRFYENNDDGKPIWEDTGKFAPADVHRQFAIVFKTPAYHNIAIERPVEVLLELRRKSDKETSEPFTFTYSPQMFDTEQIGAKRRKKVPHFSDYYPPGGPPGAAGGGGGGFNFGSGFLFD
Test: protein-binding microarray (PBM); PBM: ~300 nM protein, 6 mM HEPES pH 7.8, 80 mM KCl, 0.5 mM EDTA, 0.5 mM EGTA, 6% glycerol, 35 ng/ul poly-dIdC, 1% milk, 1 h, room temperature; Ap Aiptasia and Nv Nematostella (sea anemones) / Co Capsaspora / Aq Amphimedon (sponge) / Dm Drosophila / Hu human; RHD is the Rel homology domain; high values mean tight binding
Details: dsDNA, one strand shown
In this section, each of the sequences is paired with its reported binding signal.
MEASURED QUANTITY: binding signal (z-score)

item_sequence=CCGATTAACATCAGGGGGTTCTATGATGTTAATCGGGTCTTGATTCGCTTGACGCTGCTG system_name="GST-Ap-NF-kB RHD (Exaiptasia pallida (Aiptasia), UniProt A0A913YAJ5 2-422)" quantitative_readout=7.12
item_sequence=CCGATTAACATCAGAGACCCCCCTGATGTTAATCGGGTCTTGATTCGCTTGACGCTGCTG system_name="GST-Ap-NF-kB RHD (Exaiptasia pallida (Aiptasia), UniProt A0A913YAJ5 2-422)" quantitative_readout=4.3
item_sequence=CCGATTAACATCACGGGATTTACTGATGTTAATCGGGTCTTGATTCGCTTGACGCTGCTG system_name="GST-Ap-NF-kB RHD (Exaiptasia pallida (Aiptasia), UniProt A0A913YAJ5 2-422)" quantitative_readout=2.52
item_sequence=CCGATTAACATCAAGGGGGGATATGATGTTAATCGGGTCTTGATTCGCTTGACGCTGCTG system_name="GST-Ap-NF-kB RHD (Exaiptasia pallida (Aiptasia), UniProt A0A913YAJ5 2-422)" quantitative_readout=5.79
item_sequence=CCGATTAACATCACGAAAGTCCCTGATGTTAATCGGGTCTTGATTCGCTTGACGCTGCTG system_name="GST-Ap-NF-kB RHD (Exaiptasia pallida (Aiptasia), UniProt A0A913YAJ5 2-422)" quantitative_readout=6.26
item_sequence=CCGATTAACATCAAGGGCATCCCTGATGTTAATCGGGTCTTGATTCGCTTGACGCTGCTG system_name="GST-Ap-NF-kB RHD (Exaiptasia pallida (Aiptasia), UniProt A0A913YAJ5 2-422)" quantitative_readout=1.42
item_sequence=CCGATTAACATCAAATTGCCCCCTGATGTTAATCGGGTCTTGATTCGCTTGACGCTGCTG system_name="GST-Ap-NF-kB RHD (Exaiptasia pallida (Aiptasia), UniProt A0A913YAJ5 2-422)" quantitative_readout=4.13
item_sequence=CCGATTAACATCAGGGGGGAACATGATGTTAATCGGGTCTTGATTCGCTTGACGCTGCTG system_name="GST-Ap-NF-kB RHD (Exaiptasia pallida (Aiptasia), UniProt A0A913YAJ5 2-422)" quantitative_readout=6.4
item_sequence=CCGATTAACATCACATTGTCCCCTGATGTTAATCGGGTCTTGATTCGCTTGACGCTGCTG system_name="GST-Ap-NF-kB RHD (Exaiptasia pallida (Aiptasia), UniProt A0A913YAJ5 2-422)" quantitative_readout=4.03
item_sequence=CCGATTAACATCAACCCCCCCCGTGATGTTAATCGGGTCTTGATTCGCTTGACGCTGCTG system_name="GST-Ap-NF-kB RHD (Exaiptasia pallida (Aiptasia), UniProt A0A913YAJ5 2-422)" quantitative_readout=5.8
item_sequence=CCGATTAACATCAAGGGGGGAAATGATGTTAATCGGGTCTTGATTCGCTTGACGCTGCTG system_name="GST-Ap-NF-kB RHD (Exaiptasia pallida (Aiptasia), UniProt A0A913YAJ5 2-422)" quantitative_readout=6.16
item_sequence=CCGATTAACATCAAAATTTCCCCTGATGTTAATCGGGTCTTGATTCGCTTGACGCTGCTG system_name="GST-Ap-NF-kB RHD (Exaiptasia pallida (Aiptasia), UniProt A0A913YAJ5 2-422)" quantitative_readout=10.2
item_sequence=CCGATTAACATCAGGCAATCCCCTGATGTTAATCGGGTCTTGATTCGCTTGACGCTGCTG system_name="GST-Ap-NF-kB RHD (Exaiptasia pallida (Aiptasia), UniProt A0A913YAJ5 2-422)" quantitative_readout=7.27
item_sequence=CCGATTAACATCAGGGGAAATGATGATGTTAATCGGGTCTTGATTCGCTTGACGCTGCTG system_name="GST-Ap-NF-kB RHD (Exaiptasia pallida (Aiptasia), UniProt A0A913YAJ5 2-422)" quantitative_readout=5.75
item_sequence=CCGATTAACATCAGGGTTCCCCATGATGTTAATCGGGTCTTGATTCGCTTGACGCTGCTG system_name="GST-Ap-NF-kB RHD (Exaiptasia pallida (Aiptasia), UniProt A0A913YAJ5 2-422)" quantitative_readout=6.72
item_sequence=CCGATTAACATCAGGATCTTCCCTGATGTTAATCGGGTCTTGATTCGCTTGACGCTGCTG system_name="GST-Ap-NF-kB RHD (Exaiptasia pallida (Aiptasia), UniProt A0A913YAJ5 2-422)" quantitative_readout=3.64
item_sequence=CCGATTAACATCAGGTGTTCCCATGATGTTAATCGGGTCTTGATTCGCTTGACGCTGCTG system_name="GST-Ap-NF-kB RHD (Exaiptasia pallida (Aiptasia), UniProt A0A913YAJ5 2-422)" quantitative_readout=1.43
item_sequence=CCGATTAACATCACCTTTCCCCCTGATGTTAATCGGGTCTTGATTCGCTTGACGCTGCTG system_name="GST-Ap-NF-kB RHD (Exaiptasia pallida (Aiptasia), UniProt A0A913YAJ5 2-422)" quantitative_readout=6.53
item_sequence=CCGATTAACATCAGAAACTCCCATGATGTTAATCGGGTCTTGATTCGCTTGACGCTGCTG system_name="GST-Ap-NF-kB RHD (Exaiptasia pallida (Aiptasia), UniProt A0A913YAJ5 2-422)" quantitative_readout=3.34
item_sequence=CCGATTAACATCAAGTTTTTCCCTGATGTTAATCGGGTCTTGATTCGCTTGACGCTGCTG system_name="GST-Ap-NF-kB RHD (Exaiptasia pallida (Aiptasia), UniProt A0A913YAJ5 2-422)" quantitative_readout=4.35
item_sequence=CCGATTAACATCAAAAAACCCCATGATGTTAATCGGGTCTTGATTCGCTTGACGCTGCTG system_name="GST-Ap-NF-kB RHD (Exaiptasia pallida (Aiptasia), UniProt A0A913YAJ5 2-422)" quantitative_readout=6.53
item_sequence=CCGATTAACATCAGAAAAACACCTGATGTTAATCGGGTCTTGATTCGCTTGACGCTGCTG system_name="GST-Ap-NF-kB RHD (Exaiptasia pallida (Aiptasia), UniProt A0A913YAJ5 2-422)" quantitative_readout=2.56
item_sequence=CCGATTAACATCAGGCAAGCCCCTGATGTTAATCGGGTCTTGATTCGCTTGACGCTGCTG system_name="GST-Ap-NF-kB RHD (Exaiptasia pallida (Aiptasia), UniProt A0A913YAJ5 2-422)" quantitative_readout=2.62
item_sequence=CCGATTAACATCAGGAATTCCTATGATGTTAATCGGGTCTTGATTCGCTTGACGCTGCTG system_name="GST-Ap-NF-kB RHD (Exaiptasia pallida (Aiptasia), UniProt A0A913YAJ5 2-422)" quantitative_readout=1.1
item_sequence=CCGATTAACATCAATTATCCCCCTGATGTTAATCGGGTCTTGATTCGCTTGACGCTGCTG system_name="GST-Ap-NF-kB RHD (Exaiptasia pallida (Aiptasia), UniProt A0A913YAJ5 2-422)" quantitative_readout=6.74
item_sequence=CCGATTAACATCAGGGGGTGGGATGATGTTAATCGGGTCTTGATTCGCTTGACGCTGCTG system_name="GST-Ap-NF-kB RHD (Exaiptasia pallida (Aiptasia), UniProt A0A913YAJ5 2-422)" quantitative_readout=2.8
item_sequence=CCGATTAACATCAGGGAGAGCCCTGATGTTAATCGGGTCTTGATTCGCTTGACGCTGCTG system_name="GST-Ap-NF-kB RHD (Exaiptasia pallida (Aiptasia), UniProt A0A913YAJ5 2-422)" quantitative_readout=3.06
item_sequence=CCGATTAACATCACGGAAACACCTGATGTTAATCGGGTCTTGATTCGCTTGACGCTGCTG system_name="GST-Ap-NF-kB RHD (Exaiptasia pallida (Aiptasia), UniProt A0A913YAJ5 2-422)" quantitative_readout=1.22
item_sequence=CCGATTAACATCACGGGATTGCCTGATGTTAATCGGGTCTTGATTCGCTTGACGCTGCTG system_name="GST-Ap-NF-kB RHD (Exaiptasia pallida (Aiptasia), UniProt A0A913YAJ5 2-422)" quantitative_readout=1.39
item_sequence=CCGATTAACATCAGGGGGGCACCTGATGTTAATCGGGTCTTGATTCGCTTGACGCTGCTG system_name="GST-Ap-NF-kB RHD (Exaiptasia pallida (Aiptasia), UniProt A0A913YAJ5 2-422)" quantitative_readout=4.84
